Assay: solvent given as SMILES
Conditions: in C1COCCO1
ENDPOINT_NAME: emission maximum
Report the figure along with its unit, number first.

Item: `CC(C)CN1C(=O)/C(=C/c2ccc(C#N)cc2)C=C1c1ccccc1` | emission maximum: 598 nm

Item: `[C-]#[N+]c1ccc(-c2ccc(NC)cc2)cc1` | emission maximum: 395 nm

Notebook: `COc1ccc(/C=C/C(=O)c2ccccc2O)cc1OC` , emission maximum read as 425 nm

emission maximum reported for this compound `CC(=O)Nc1ccc(C2=C/C(=C\c3ccc(C#N)cc3)C(=O)N2)cc1` : 584 nm

Field emission maximum (entry `N#Cc1ccc(/C=C2\N=C(c3ccccc3)NC2=O)cc1` ) reads 464 nm

More entries:
For `CN(C)c1ccc(/C=C/C=C/c2nc3ccccc3s2)cc1` the compound record lists emission maximum as 516 nm

====

Test: solvent given as SMILES
Conditions: in CS(C)=O
ENDPOINT_NAME: emission maximum (nm)
# number only, unit nm dropped from output

Notebook: `CC(C)(C)OC(=O)COc1ccc2c(c1)oc(=O)c1c(=O)oc3ccccc3c12` , emission maximum read as 449

Per the record, `CSc1cc(-c2cc3cc4c5c(c3oc2=O)CCCN5CCC4)oc(=O)c1C#N` has emission maximum of 616

The reported value for `CCC1=C(C)C(=O)n2c1cc1c(c(C)c(C(=O)OC)n1C)c2=O` in terms of emission maximum is 482

Record `COc1ccc(-c2ccc(-c3ccc(C#N)s3)s2)cc1` , field emission maximum: 484

For this compound ( `CN(C)c1ccc2cc(C3=[O+][B-](F)(F)OC(c4ccccc4)=C3)ccc2c1` ), measured emission maximum is 422

Documented emission maximum of `CN(C)c1ccc2c3c(ccc2c1)CCCC3=O` : 538

Lab note: `N#Cc1cc2ccccc2oc1=O` gave emission maximum of 405

Reported emission maximum for `CN(C)c1ccc(/C=C2\CC/C(=C\c3ccc(N(C)C)cc3)C2=O)cc1` was 588

response.value for `O=S(=O)(/N=c1\oc2cccc3c4c(-c5ccccc5)oc5cccc(c(c1-c1ccccc1)c23)c54)C(F)(F)F` (field: emission maximum) = 596

# compound `Nc1ccc2c(C(F)(F)F)cc(=O)oc2c1` ; its emission maximum = 487

Looking up `COc1cc2sc3nc(-c4ccccc4OC)sc3c2cc1OC` , I found its emission maximum recorded as 438

====

Experiment: solvent given as SMILES
Conditions: in ClC(Cl)Cl
ENDPOINT_NAME: emission maximum

The cases that follow already have their emission maximum on record.
Lab note: `CCCCCCCCCCCC#CC#CCCCCCCCCCN1C(=O)c2ccc3c4ccc5c6c(ccc(c7ccc(c2c37)C1=O)c64)C(=O)N(CCCCCCCCCC#CC#CCCCCCCCCCCCC)C5=O` gave emission maximum of 535 nm

Recorded result, `CCCCCCN1C(=O)C(c2ccc(-c3ccc(-n4c5ccccc5c5ccccc54)cc3)cc2)=C(c2ccc(-c3ccc(-n4c5ccccc5c5ccccc54)cc3)cc2)C1=O` , emission maximum: 552 nm

Per the records, this compound ( `COc1ccc(C2=[N+]3C(=Nc4c(-c5ccccc5)c5c(n4[B-]3(F)F)-c3ccc(OC)cc3CC5)C(c3ccccc3)=C2)cc1` ) has emission maximum equal to 732 nm

Now consider the entry below.
// `CCCCCCn1c2ccccc2c2cc(/C=C/c3cc(=O)oc4cc(C)ccc34)ccc21` : emission maximum value = 504 nm
